Numbers sourced from patent US20120171209A1.

// reported koff for each item listed
molecular target: cynomolgus IL-6R used in Biacore (cynomolgus monkey); test: Biacore, periplasmic extract
Recorded Endpoint: koff (s⁻¹)

>>> reported_result("IL6RPMP104B9 (VHH, family 5; periplasmic extract) VHH: EVQLVESGGGLVQAGGSLRLSCTASGRTFSDYDMGWFRQAPGKERECVAIIDTNGDNTLIVGSVKGRFAISSDNAKNTVYLQMNSLLPEDTAVYTCAAGVWSSLRHTAANYWGQGTQVTVSS")
0.00074
>>> reported_result("IL6RPMP108D10 (VHH) VHH: EVQLVESGGGSVQAGGSLRLSCTASGRTFSDYDMGWFRQAPGKERECVAVIDTNGDNTLTVGSVKGRFAISRDNAKNTVYLQMNSLLPEDTAVYTCAAGAWSSLRSTAANYWGQGTQVTVSS")
0.0009
>>> reported_result("IL6RPMP104B8 (VHH, family 3; also called PMP104B08; IL6R104B8) VHH: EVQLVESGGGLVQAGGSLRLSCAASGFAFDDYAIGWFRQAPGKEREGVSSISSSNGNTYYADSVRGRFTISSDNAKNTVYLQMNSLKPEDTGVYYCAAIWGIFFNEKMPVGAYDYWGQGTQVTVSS")
0.01
